tested.target: Acetylcholinesterase (Rattus norvegicus)
Sequence (P37136 whole entry): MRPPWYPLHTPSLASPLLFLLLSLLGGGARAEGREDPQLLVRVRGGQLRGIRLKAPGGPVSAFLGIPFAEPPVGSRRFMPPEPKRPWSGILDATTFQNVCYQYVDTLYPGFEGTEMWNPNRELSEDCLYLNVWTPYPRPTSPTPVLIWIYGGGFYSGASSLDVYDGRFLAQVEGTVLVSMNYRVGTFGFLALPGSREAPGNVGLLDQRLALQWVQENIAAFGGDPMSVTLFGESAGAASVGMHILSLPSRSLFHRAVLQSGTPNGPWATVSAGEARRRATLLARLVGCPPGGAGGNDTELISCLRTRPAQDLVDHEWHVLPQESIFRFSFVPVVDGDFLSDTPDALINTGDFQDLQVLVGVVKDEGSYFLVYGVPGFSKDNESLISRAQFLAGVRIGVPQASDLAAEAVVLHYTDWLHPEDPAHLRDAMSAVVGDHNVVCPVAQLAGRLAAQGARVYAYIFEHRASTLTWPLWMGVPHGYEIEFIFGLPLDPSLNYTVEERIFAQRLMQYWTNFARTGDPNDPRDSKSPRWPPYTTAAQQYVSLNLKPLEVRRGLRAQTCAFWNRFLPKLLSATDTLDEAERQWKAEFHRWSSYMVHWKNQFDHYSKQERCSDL
# IC50 per record follows

| molecule | units.text | rel | IC50 |
| --- | --- | --- | --- |
| Nc1c2c(nc3ccccc13)[C@H](O)CC[C@H]2O | µM | = | 62.1 |
| Nc1c2c(nc3ccccc13)CCCC2O (stereo unspecified) [VELNACRINE] | µM | = | 1.3 |
| Nc1c2c(nc3ccc(O)cc13)CCCC2O (stereo unspecified) | µM | = | 10.6 |
| Nc1c2c(nc3ccccc13)CC[C@H](O)[C@H]2O | µM | > | 100 |
| Nc1c2c(nc3ccccc13)CC[C@H](O)[C@@H]2O | µM | > | 100 |
| Nc1c2c(nc3cccc(O)c13)CCCC2O (stereo unspecified) | µM | = | 27.4 |
| Nc1c2c(nc3ccccc13)C[C@H](O)C[C@H]2O | µM | = | 14.7 |
| Nc1c2c(nc3ccccc13)[C@H](O)CC[C@@H]2O | µM | = | 4.6 |
| Nc1c2c(nc3cc(O)ccc13)CCCC2O (stereo unspecified) | µM | = | 64.4 |
| Nc1c2c(nc3ccccc13)C[C@H](O)C[C@@H]2O | µM | = | 5.4 |
| Nc1c2c(nc3c(O)cccc13)CCCC2O (stereo unspecified) | µM | = | 25.1 |
